- system: P-gp (Homo sapiens, UniProt P08183)
- Construct: was obtained by stepwise selection of CCRF‐CEM in vincristine‐containing medium; endogenous in cells; gift of V. Gekeler)
- Sequence (P08183 whole entry): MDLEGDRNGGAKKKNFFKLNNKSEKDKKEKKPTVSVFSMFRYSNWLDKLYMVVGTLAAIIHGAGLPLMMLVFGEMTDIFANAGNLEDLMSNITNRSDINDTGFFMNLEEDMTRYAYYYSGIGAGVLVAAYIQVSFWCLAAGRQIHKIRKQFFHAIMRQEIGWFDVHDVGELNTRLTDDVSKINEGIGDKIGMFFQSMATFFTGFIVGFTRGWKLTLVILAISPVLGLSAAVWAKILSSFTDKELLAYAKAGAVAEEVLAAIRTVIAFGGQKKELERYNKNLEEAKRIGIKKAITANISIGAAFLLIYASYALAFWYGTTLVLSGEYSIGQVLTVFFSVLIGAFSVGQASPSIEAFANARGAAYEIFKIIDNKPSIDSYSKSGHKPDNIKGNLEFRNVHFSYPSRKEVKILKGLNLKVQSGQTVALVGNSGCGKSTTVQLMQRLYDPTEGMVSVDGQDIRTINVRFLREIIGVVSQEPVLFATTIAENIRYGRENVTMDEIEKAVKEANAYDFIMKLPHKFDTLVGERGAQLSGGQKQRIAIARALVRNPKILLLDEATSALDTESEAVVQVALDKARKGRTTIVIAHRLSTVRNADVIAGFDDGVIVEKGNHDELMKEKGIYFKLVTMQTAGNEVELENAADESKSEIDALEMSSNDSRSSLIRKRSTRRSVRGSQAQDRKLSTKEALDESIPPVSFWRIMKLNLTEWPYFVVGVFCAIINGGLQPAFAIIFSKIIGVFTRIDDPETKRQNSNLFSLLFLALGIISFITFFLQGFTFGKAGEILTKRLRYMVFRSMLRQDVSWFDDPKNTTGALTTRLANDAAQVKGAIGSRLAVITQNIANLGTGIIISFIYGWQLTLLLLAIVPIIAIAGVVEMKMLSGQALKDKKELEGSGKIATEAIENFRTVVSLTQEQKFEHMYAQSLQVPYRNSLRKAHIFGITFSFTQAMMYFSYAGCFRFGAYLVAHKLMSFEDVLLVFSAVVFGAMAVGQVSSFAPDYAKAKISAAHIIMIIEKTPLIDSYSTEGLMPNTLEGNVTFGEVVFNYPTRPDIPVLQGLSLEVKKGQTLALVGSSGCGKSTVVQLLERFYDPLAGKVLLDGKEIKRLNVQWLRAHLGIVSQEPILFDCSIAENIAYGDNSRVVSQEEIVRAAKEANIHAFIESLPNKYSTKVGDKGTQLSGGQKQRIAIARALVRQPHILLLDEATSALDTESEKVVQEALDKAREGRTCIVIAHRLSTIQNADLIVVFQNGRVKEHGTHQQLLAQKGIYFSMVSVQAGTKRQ
- test_details: P-gp inhibition: steady-state daunorubicin accumulation in P-gp-overexpressing CCRF VCR1000 cells (flow cytometry)
- condition: daunorubicin 3 μM, CCRF VCR1000 cells; mean±SD, at least n=3
Response field label: string, one of rule met (IC50 strictly below 2000 nM) or rule not met.

Record excerpt, results attached:
compound="CC(=O)c1ccccc1OCC(O)CNC(=O)C1CCCN1 (stereo not drawn)" discrete_label="rule not met"
compound="COc1ccc(C(=O)CCc2ccccc2)c(OCCN2CC(=O)N3CCCC3C2=O)c1 (stereo not drawn)" discrete_label="rule not met"
compound="O=C(CCc1ccccc1)c1ccccc1OCC(O)CN1CC(=O)N2CCCC2C1=O (stereo not drawn)" discrete_label="rule met"
compound="CC(=O)c1ccccc1OCCNC(=O)C1CCCN1 (stereo not drawn)" discrete_label="rule not met"
compound="O=C(CCc1ccccc1)c1ccccc1OCCNC(=O)C1CCCN1 (stereo not drawn)" discrete_label="rule met"
compound="O=C(CCc1ccccc1)c1ccccc1OCC(O)CNC(=O)C1CCCN1 (stereo not drawn)" discrete_label="rule not met"
compound="O=C(CCc1ccccc1)c1ccccc1OCCN1CC(=O)N2CCCC2C1=O (stereo not drawn)" discrete_label="rule not met"
compound="COc1ccc(C(=O)CCc2ccccc2)c(OCC(O)CNC(=O)C2CCCN2)c1 (stereo not drawn)" discrete_label="rule not met"

Now let's try a different one.
Query string: A record lists COc1ccc(C(=O)CCc2ccccc2)c(OCCNC(=O)C2CCCN2)c1 (stereo not drawn) . Is its IC50 below 2000 nM?
Result string: rule met

====

- system: P-gp (Homo sapiens, UniProt P08183)
- Construct: was obtained by stepwise selection of CCRF‐CEM in vincristine‐containing medium; endogenous in cells; gift of V. Gekeler)
- test_details: P-gp inhibition: steady-state daunorubicin accumulation in P-gp-overexpressing CCRF VCR1000 cells (flow cytometry)
- condition: daunorubicin 3 μM, CCRF VCR1000 cells; mean±SD, at least n=3
Collected IC50 values appear next to each entry.
Respond with the bare value in µM.

In the examples that follow, each entry is paired with its recorded IC50.
compound="CC(NCC(O)COc1ccccc1C(=O)CCc1ccccc1)C(F)F (stereo not shown)" assay_result=0.9
compound="CC(CF)NCC(O)COc1ccccc1C(=O)CCc1ccccc1 (stereo not shown)" assay_result=0.5
compound="CC(C)NCC(O)COc1ccccc1C(=O)CCc1ccccc1 (stereo not shown)" assay_result=0.3

Query string: Which IC50 value is on record for COc1ccc(C(=O)CCc2ccccc2)c(OCC(O)CN2CC(=O)N3CCCC3C2=O)c1 (stereo not shown) ?
Result string: 11

====

- system: P-gp (Homo sapiens, UniProt P08183)
- Construct: was obtained by stepwise selection of CCRF‐CEM in vincristine‐containing medium; endogenous in cells; host or cells: CCRF VCR1000 (vincristine-selected subline of CCRF-CEM human T-lymphoblasts; gift of V. Gekeler)
- test_details: P-gp inhibition: steady-state daunorubicin accumulation in P-gp-overexpressing CCRF VCR1000 cells (flow cytometry)
- Assay type: cell-based
- condition: IC50 below 10 μM considered active
reported_property: in vitro classification as P-gp inhibitor

In the examples that follow, each entry is paired with its recorded in vitro classification as P-gp inhibitor.
molecule="COc1ccc(C(=O)CCc2ccccc2)c(OCC(O)CNC(=O)C2CCCN2)c1 (centres unmarked)" system="P-gp (Homo sapiens, UniProt P08183)" assay_result=inhibitors
molecule="CC(C)NCC(O)COc1ccccc1C(=O)CCc1ccccc1 (centres unmarked)" system="P-gp (Homo sapiens, UniProt P08183)" assay_result=inhibitors
molecule="COc1ccc(C(=O)CCc2ccccc2)c(OCCN2CC(=O)N3CCCC3C2=O)c1 (centres unmarked)" system="P-gp (Homo sapiens, UniProt P08183)" assay_result=inhibitors
molecule="CC(=O)c1ccccc1OCC(O)CN1CC(=O)N2CCCC2C1=O (centres unmarked)" system="P-gp (Homo sapiens, UniProt P08183)" assay_result=noninhibitors
molecule="O=C(CCc1ccccc1)c1ccccc1OCC(O)CN1CC(=O)N2CCCC2C1=O (centres unmarked)" system="P-gp (Homo sapiens, UniProt P08183)" assay_result=inhibitors

# next molecule below
Query string: Query (molecule): O=C(CCc1ccccc1)c1ccccc1OCC(O)CNC(=O)C1CCCN1 (centres unmarked) ; field requested: in vitro classification as P-gp inhibitor
Result string: inhibitors

====

- system: P-gp (Homo sapiens, UniProt P08183)
- Construct: was obtained by stepwise selection of CCRF‐CEM in vincristine‐containing medium; endogenous in cells; host or cells: CCRF VCR1000 (vincristine-selected subline of CCRF-CEM human T-lymphoblasts; gift of V. Gekeler)
- test_details: P-gp inhibition: steady-state daunorubicin accumulation in P-gp-overexpressing CCRF VCR1000 cells (flow cytometry)
- Format: cell-based
- condition: human, CCRF VCR1000 cells overexpressing P-gp, pH 7.4, probe daunorubicin (3 µM); 100µM compound, compared to positive control verapamil (100µM) set as 100%; mean of 3 independent experiments; read-out: In vitro activity (% inhibition), P-gp, Table S2
Reported inhibition at 30 min, 100 µM values for a set of molecules
Please respond with the number in % and leave the unit unwritten.

molecule="CC(=O)c1ccccc1OCC(O)CN1CC(=O)N2CCCC2C1=O (centres unmarked)" scale_unit=% assay_result=4

Query string: Fill in: inhibition at 30 min, 100 µM of CC(=O)c1ccccc1OCCN1CC(=O)N2CCCC2C1=O (centres unmarked) is ___
Result string: 8

====

# Hill coefficient P-gp values compiled below
- system: P-gp (Homo sapiens)
- Construct: was obtained by stepwise selection of CCRF‐CEM in vincristine‐containing medium; endogenous in cells; host or cells: CCRF VCR1000 (vincristine-selected subline of CCRF-CEM human T-lymphoblasts; gift of V. Gekeler)
- test_details: P-gp inhibition: steady-state daunorubicin accumulation in P-gp-overexpressing CCRF VCR1000 cells (flow cytometry)
- Format: cell-based
- condition: Hill coefficient of IC50 measurement, mean ± SD of n experiments
# answer = number (no unit)

compound="O=C(CCc1ccccc1)c1ccccc1OCC(O)CNC(=O)C1CCCN1 (stereo not shown)" system="P-gp (Homo sapiens)" assay_result=1.3
compound="CC(NCC(O)COc1ccccc1C(=O)CCc1ccccc1)C(F)F (stereo not shown)" system="P-gp (Homo sapiens)" assay_result=1.5
compound="CC(=O)c1ccccc1OCC(O)CNC(=O)C1CCCN1 (stereo not shown)" system="P-gp (Homo sapiens)" assay_result=1.9

Query string: Request the reported Hill coefficient P-gp associated with COc1ccc(C(=O)CCc2ccccc2)c(OCCNC(=O)C2CCCN2)c1 (stereo not shown)
Result string: 1.1

Query string: If you can, please state the reported Hill coefficient P-gp value of CC(C)NCC(O)COc1ccccc1C(=O)CCc1ccccc1 (stereo not shown) .
Result string: 0.9

====

- system: P-gp (Homo sapiens, UniProt P08183)
- Construct: was obtained by stepwise selection of CCRF‐CEM in vincristine‐containing medium; endogenous in cells; host or cells: CCRF VCR1000 (vincristine-selected subline of CCRF-CEM human T-lymphoblasts; gift of V. Gekeler)
- test_details: P-gp inhibition: steady-state daunorubicin accumulation in P-gp-overexpressing CCRF VCR1000 cells (flow cytometry)
- Type: cell-based
- condition: ratio IC50 BCRP / IC50 P-gp
- Protocol: P‐gp and BCRP inhibitory activity was assessed by implementing an intracellular accumulation assay of daunorubicin or mitoxantrone in cells overexpressing P‐gp or BCRP, respectively. In a first run, the effect of compounds 5, 6, 10, 11, and 16 (Figure 2) at 100 μM final concentration was tested (Figure 3). […]
reported_property: fold higher IC50 value for BCRP than for P-gp

compound="CC(C)NCC(O)COc1ccccc1C(=O)CCc1ccccc1 (centres unmarked)" system="P-gp (Homo sapiens, UniProt P08183)" assay_result="more than fivefold"
compound="CC(CF)NCC(O)COc1ccccc1C(=O)CCc1ccccc1 (centres unmarked)" system="P-gp (Homo sapiens, UniProt P08183)" assay_result="more than fivefold"
compound="CC(NCC(O)COc1ccccc1C(=O)CCc1ccccc1)C(F)F (centres unmarked)" system="P-gp (Homo sapiens, UniProt P08183)" assay_result="more than fivefold"
compound="COc1ccc(C(=O)CCc2ccccc2)c(OCC(O)CNC(=O)C2CCCN2)c1 (centres unmarked)" system="P-gp (Homo sapiens, UniProt P08183)" assay_result="1.4 fold"

====

- system: BCRP (Homo sapiens, UniProt Q9UNQ0)
- Construct: expressed in transfected cells; host or cells: PLB985 human myeloid leukemia cells stably expressing BCRP (gift of B. Sarkadi and K. Nemet, Budapest)
- Sequence (Q9UNQ0 whole entry): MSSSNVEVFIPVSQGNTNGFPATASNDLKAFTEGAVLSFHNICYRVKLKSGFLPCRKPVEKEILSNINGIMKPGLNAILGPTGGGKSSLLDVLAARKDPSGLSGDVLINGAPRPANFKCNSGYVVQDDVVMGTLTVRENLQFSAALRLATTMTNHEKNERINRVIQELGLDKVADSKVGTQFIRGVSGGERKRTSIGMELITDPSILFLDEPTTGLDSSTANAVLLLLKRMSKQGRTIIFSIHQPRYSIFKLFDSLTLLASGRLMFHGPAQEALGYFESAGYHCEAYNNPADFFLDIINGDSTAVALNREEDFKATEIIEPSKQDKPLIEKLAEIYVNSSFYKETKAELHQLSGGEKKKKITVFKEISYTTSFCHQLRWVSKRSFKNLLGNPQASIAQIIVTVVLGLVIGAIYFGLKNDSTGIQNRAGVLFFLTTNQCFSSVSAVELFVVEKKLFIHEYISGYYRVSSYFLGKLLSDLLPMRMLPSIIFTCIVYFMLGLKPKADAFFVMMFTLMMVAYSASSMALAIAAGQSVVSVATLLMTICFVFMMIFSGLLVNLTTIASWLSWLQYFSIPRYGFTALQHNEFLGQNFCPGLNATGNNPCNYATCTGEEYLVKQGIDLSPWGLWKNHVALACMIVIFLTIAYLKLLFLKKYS
- test_details: BCRP inhibition: steady-state mitoxantrone accumulation in BCRP-expressing PLB985 cells (flow cytometry)
- Assay type: cell-based
- condition: human, PLB985 cells stably expressing BCRP, pH 7.4, probe mitoxantrone (7 µM); 100µM compound, compared to positive control Ko143 (1µM) set as 100%; mean of 3 independent experiments; read-out: In vitro activity (% inhibition), BCRP, Table S1
- Method: P‐gp and BCRP inhibitory activity was assessed by implementing an intracellular accumulation assay of daunorubicin or mitoxantrone in cells overexpressing P‐gp or BCRP, respectively. In a first run, the effect of compounds 5, 6, 10, 11, and 16 (Figure 2) at 100 μM final concentration was tested (Figure 3). […]
Reported inhibition at 20 min, 100 µM by item:
Please give a number only; it is taken to be in %.

molecule="CC(=O)c1ccccc1OCC(O)CN1CC(=O)N2CCCC2C1=O (centres unmarked) [Compound 6 c]" reported_property="inhibition at 20 min, 100 µM" scale_unit=% assay_result=33
molecule="CC(=O)c1ccccc1OCCN1CC(=O)N2CCCC2C1=O (centres unmarked) [Compound 11 c]" reported_property="inhibition at 20 min, 100 µM" scale_unit=% assay_result=37
molecule="CC(=O)c1ccccc1OCCNC(=O)C1CCCN1 (centres unmarked) [Compound 10 c]" reported_property="inhibition at 20 min, 100 µM" scale_unit=% assay_result=24
molecule="CC(C)NCC(O)COc1ccccc1C(=O)CCc1ccccc1 (centres unmarked) [Compound 16 a]" reported_property="inhibition at 20 min, 100 µM" scale_unit=% assay_result=53

Query string: Please report the recorded inhibition at 20 min, 100 µM for CC(=O)c1ccccc1OCC(O)CNC(=O)C1CCCN1 (centres unmarked) [Compound 5 c] .
Result string: 20
